- Tested on: SR leukemia
- experiment-notes: NCI-60 one-dose screen, 48 h
- reported-conditions: 10 µM unless noted
- Procedure: Growth inhibition of the SR human tumor cell line is measured as a screen for anti-cancer activity. Cells are grown in 96 well plates and exposed to the test compound for 48 hours. Compounds are tested at a single concentration, which is 10^-5 M for most compounds. The reported endpoint is percent growth (GI% or GIPRCNT), where numbers from 0 - 100% represent growth inhibition, and numbers from -100% - 0 represent cell death. For example, a value of 40 represents 60% growth inhibition. […]
This is part of a sample that, as a whole, favours compounds with a hit. Of some 83,000 tested, about 20% had one in any assay. Active and inactive are the calls of the source. How the source made its calls: active means growth percent below 10; inactive means the rest.
Respond using exactly one of the listed classes: yes (1) = active, no (0) = inactive

{"molecule": "COc1ccc2[nH]cc(-c3nc(N)nnc3-c3cn(C)c4ccc(Br)cc34)c2c1", "label": "yes (1)"}

Query: Fill in: this test's call for CC1=C(C)C(=O)C(Nc2cccc(C(=O)OC(C)(C)C)c2)=CC1=O is ___
Result: no (0)

Query: Fill in: this test's call for COc1cc2c3c(cc4c5c(ccc4c3c1OC)OCO5)N(CCN(C)C)C2=O is ___
Result: yes (1)

Query: Fill in: this test's call for O=c1[nH][nH]c(-c2ccc(F)cc2)c1-c1nc2ccccc2s1 is ___
Result: no (0)

Query: Fill in: this test's call for C=C(C)[C@@H]1CC[C@]2(C(=O)N3CCN(C)CC3)CC[C@]3(C)[C@H](CC[C@@H]4[C@@]5(C)CC[C@H](OP(=O)(OCC)OCC)C(C)(C)[C@@H]5CC[C@]43C)[C@@H]12 is ___
Result: yes (1)

Query: Fill in: this test's call for CCOC(=O)c1ccccc1NC1=C(Cl)C(=O)c2nc(C)ccc2C1=O is ___
Result: no (0)

Query: Fill in: this test's call for CC(Nc1c(C#N)cnc2ccc(-c3cncc(-c4n[nH]c(=O)o4)c3)cc12)c1ccccc1 (stereo unspecified) is ___
Result: yes (1)

Query: Fill in: this test's call for COc1ccc(/C=N/NC(=O)c2c(N)nn(C)c2Nc2ccccc2)cc1Oc1ccccc1 is ___
Result: no (0)

Query: Fill in: this test's call for CNC(=O)c1cc(-n2ccc3cc(NC(=O)Nc4ccc(N5CCN(C)CC5)c(C(F)(F)F)c4)ccc32)ccn1 is ___
Result: yes (1)

Query: Fill in: this test's call for O=C1CSC(c2cn(-c3ccccc3)nc2-c2ccc(Cl)cc2)N1c1ccccc1 (stereo unspecified) is ___
Result: no (0)

Query: Fill in: this test's call for N#Cc1c(-c2ccc(F)cc2)cc(-c2c[nH]c3ccccc23)nc1-c1c[nH]c2ccccc12 is ___
Result: no (0)

Query: Fill in: this test's call for COc1ccccc1Cn1cc(C#N)c(N)c1C(=O)c1ccc(Br)cc1 is ___
Result: no (0)

###

- System: LOX IMVI melanoma
- experiment-notes: NCI-60 one-dose screen, 48 h
- reported-conditions: 10 µM unless noted
The panel holds about 83,000 compounds, 20% with a hit somewhere; the sample as a whole holds those more often. Calls of active or inactive are those of the source. How the source made its calls: active means growth percent below 10; inactive means the rest.
Respond using exactly one of the listed classes: active, inactive

Please review the entries below; each comes with its answer.
{"compound": "N#Cc1c(-c2cccs2)cc(-c2cnccn2)nc1SCC(=O)N/N=C/c1ccncc1", "label": "inactive"}
{"compound": "CCCc1cc2cc(-n3nc(CC)c4c3CC(C)(C)CC4=O)cc(NC3CCC(O)CC3)c2c(=O)[nH]1 (stereo not given)", "label": "inactive"}
{"compound": "CCCc1[nH]c(-c2cc(N)ccc2Cl)c2c1C(=O)CCCC2", "label": "inactive"}
{"compound": "CC1(C)CC[C@]2(C(=O)NCCCCCCN(CCCN)CCCN)CC[C@]3(C)C(=CC[C@@H]4[C@@]5(C)CC[C@H](O)C(C)(C)[C@@H]5CC[C@]43C)[C@@H]2C1", "label": "inactive"}
{"compound": "CCS(=O)(=O)Nc1ccc(C(=O)CC2(O)C(=O)Nc3ccccc32)cc1 (stereo not given)", "label": "inactive"}

Query: Fill in: this test's call for O=C(CSc1cc[n+](CCCCO)c2ccccc12)n1ccc2ccccc21 is ___
Result: inactive

Query: Fill in: this test's call for C#CCN(C)CCCOc1ccc(NC(=O)CCCCCCC(=O)NO)cc1Cl is ___
Result: active

###

- Tested on: TK-10 renal
- experiment-notes: NCI-60 one-dose screen, 48 h
- reported-conditions: 10 µM unless noted
This is part of a sample that, as a whole, favours compounds with a hit. Of some 83,000 tested, about 20% had one in any assay. Activity calls are given as the source filed them. The calls were made as follows: active = growth percent below 10; inactive = the rest.
Respond using exactly one of the listed classes: active, inactive

{"compound": "Cc1ccc(C(=O)CSc2nc3ccccc3c(=O)n2C)cc1", "label": "inactive"}
{"compound": "CCOC(=O)c1c(NC(=O)c2cccc(C(F)(F)F)c2)sc2c1CCC(=O)C2", "label": "inactive"}
{"compound": "Cn1cc(-c2nn3cc(-c4ccncc4)nc3s2)c2cc(F)ccc21", "label": "inactive"}
{"compound": "O=c1c2cc(-c3ccc(F)cc3F)ccc2n(O)c(=O)n1-c1cccc(C(F)(F)F)c1", "label": "active"}
{"compound": "O=C(CCCCCCN1CC(=O)N2[C@@H](C3CC3)c3[nH]c4ccccc4c3C[C@H]2C1=O)NO", "label": "inactive"}
{"compound": "C=C(C)[C@@H]1CC[C@]2(COCCCNCCCN)CC[C@]3(C)[C@H](CC[C@@H]4[C@@]5(C)CC[C@H](O)C(C)(C)[C@@H]5CC[C@]43C)[C@@H]12", "label": "active"}
{"compound": "Cc1ccc(CSC2=C(Cl)CN(c3ccc(Cl)cc3)C2=O)cc1", "label": "inactive"}
{"compound": "NC(=O)n1c(=O)n(-c2cccc(C(F)(F)F)c2)c(=O)c2cc(-c3ccc(F)cc3F)ccc21", "label": "active"}
{"compound": "O=C(NNc1nc2cc(F)cc(F)c2n2cccc12)c1cccnn1", "label": "inactive"}
{"compound": "CC1=C(C)C(=O)C(Nc2cccc(C(=O)OC(C)(C)C)c2)=C(Cl)C1=O", "label": "inactive"}

Query: Fill in: this test's call for N#Cc1nc(-c2ccc(Cl)cc2)oc1N1CCC(S(=O)(=O)N2CCOCC2)CC1 is ___
Result: inactive

Query: Fill in: this test's call for O=c1c2cc(-c3ccc(F)cc3F)ccc2n(Nc2ccccc2)c(=O)n1-c1cccc(C(F)(F)F)c1 is ___
Result: inactive

Query: Fill in: this test's call for CC(O)c1cccc(/C(N)=N/C(N)=N/c2nc3ccccc3s2)c1 (configuration not stated) is ___
Result: inactive

Query: Fill in: this test's call for CNC(=O)Nc1ccc(Nc2cc(-c3ccc(-n4cccn4)cc3)[nH]n2)c(C)c1 is ___
Result: inactive

Query: Fill in: this test's call for Cc1ccc(/C(N)=N/C(N)=N/c2nc3ccccc3s2)cc1 is ___
Result: inactive

Query: Fill in: this test's call for Cc1ccc(NC(=O)/C=C/c2ccc(OCCCOc3ccc4c(C)cc(=O)oc4c3)cc2)cc1 is ___
Result: inactive

Query: Fill in: this test's call for CN(C)CCNc1ccc2ncc(C#Cc3cncc(C(=O)Nc4ccc(CN5CCN(C)CC5)c(C(F)(F)F)c4)c3)n2n1 is ___
Result: inactive

Query: Fill in: this test's call for N#Cc1c(-c2cccs2)cc(-c2cnccn2)nc1SCC(=O)N/N=C/c1ccc(Cl)cc1 is ___
Result: inactive

###

- Test system: UACC-62 melanoma
- experiment-notes: NCI-60 one-dose screen, 48 h (100 = growth as untreated, 0 = no growth, -100 = all killed)
- reported-conditions: 10 µM unless noted
The panel holds about 83,000 compounds, 20% with a hit somewhere; the sample as a whole holds those more often.
experimental-readout: growth (%)
Could you give me the number in %? Just the number is fine.

Guide cases for growth, answers given:
{"molecule": "N#Cc1c(-c2cccs2)cc(-c2cnccn2)nc1SCC(=O)N/N=C/c1ccncc1", "unit-label": "%", "growth": 91.4}
{"molecule": "COc1ccc(C2C(C#N)=C(/N=C/c3ccc(Cl)cc3)Oc3c2sc2c(C)cccc32)cc1 (stereo not given)", "unit-label": "%", "growth": 23}
{"molecule": "CC(C)(C)c1cc(NC(=O)Nc2ccc(-c3cn4c5c(sc4n3)CCc3cn(CCCN4CCCCC4)cc3-5)cc2)no1", "unit-label": "%", "growth": 98}
{"molecule": "O=S(=O)(Oc1ccc(-c2cn3ccoc3n2)cc1)C1CCCCC1", "unit-label": "%", "growth": 85.3}
{"molecule": "O=C(CCCCCCNC(=O)C(O)(O)C(F)(F)F)Nc1ccc(Br)cc1", "unit-label": "%", "growth": -50}

Query: Specify growth for N#Cc1nc(-c2ccc(Cl)cc2)oc1N1CCC(S(=O)(=O)N2CCOCC2)CC1 and stop.
Result: 94.1

Query: Specify growth for CC1=C(C)C(=O)C(Nc2cccc(C(F)(F)F)c2)=C(Br)C1=O and stop.
Result: 80.8
